Reference source: patent EP2272817A1

Target: recombinant human PAI-1 (Homo sapiens, UniProt P05121)
Sequence (P05121 24-402): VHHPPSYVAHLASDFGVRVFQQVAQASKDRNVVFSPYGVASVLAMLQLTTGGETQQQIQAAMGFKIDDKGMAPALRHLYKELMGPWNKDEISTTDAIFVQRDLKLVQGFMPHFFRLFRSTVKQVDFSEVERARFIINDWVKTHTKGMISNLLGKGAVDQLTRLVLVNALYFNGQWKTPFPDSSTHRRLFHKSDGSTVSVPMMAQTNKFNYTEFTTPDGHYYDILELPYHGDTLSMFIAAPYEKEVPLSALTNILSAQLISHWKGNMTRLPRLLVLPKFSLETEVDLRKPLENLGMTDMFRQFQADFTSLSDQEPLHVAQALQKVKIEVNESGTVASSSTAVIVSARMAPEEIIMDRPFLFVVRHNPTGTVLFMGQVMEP
Test: biochemical
Conditions: read-out: Inhibition Rate of PAI-1 Activity (%)
measured_metric: inhibition at 10 µM (%)
Please give a number only; it is taken to be in %.

smi | system | units_text | inhibition at 10 µM
O=C(O)C(=O)N(Cc1ccccc1)c1ccc(Oc2ccc(OC(F)(F)F)cc2)cc1 | recombinant human PAI-1 (Homo sapiens, UniProt P05121) | % | 3
CCCOc1ccc(N(CCCc2ccccc2)C(=O)C(=O)O)c(-c2ccc(OC(F)(F)F)cc2)c1 | recombinant human PAI-1 (Homo sapiens, UniProt P05121) | % | 82

Next, consider the following compound.
Measured inhibition at 10 µM (recombinant human PAI-1 (Homo sapiens, UniProt P05121)), entry "CC(C)Oc1ccc(N(CCCc2ccccc2)C(=O)C(=O)O)c(-c2ccc(OC(F)(F)F)cc2)c1" : 80

----------
Biological target: recombinant human PAI-1 (Homo sapiens, UniProt P05121)
Test: biochemical
Settings: read-out: Inhibition Rate of PAI-1 Activity (%)
measured_metric: inhibition at 10 µM (%)
Please give a number only; it is taken to be in %.

smi | system | inhibition at 10 µM [%]
CC(C)c1ccc(Oc2ccc(/C=C\C(=O)O)c(Oc3ccc(C(C)C)cc3)c2)cc1 | recombinant human PAI-1 (Homo sapiens, UniProt P05121) | 53
O=C(O)C(=O)N(CCCCc1ccccc1)c1ccc(-c2ccc(OC(F)(F)F)cc2)cc1 | recombinant human PAI-1 (Homo sapiens, UniProt P05121) | 50
CCCOc1ccc(N(CCCc2ccccc2)C(=O)C(=O)O)cc1-c1ccc(OC(F)(F)F)cc1 | recombinant human PAI-1 (Homo sapiens, UniProt P05121) | 80
CC(C)(C)c1ccc(CN(C(=O)C(=O)O)c2ccc(OCc3ccccc3)c(-c3ccc(OC(F)(F)F)cc3)c2)cc1 | recombinant human PAI-1 (Homo sapiens, UniProt P05121) | 95

Given item "Cc1cc(-c2ccc(OC(F)(F)F)cc2)cc(C)c1N(Cc1ccc(C(C)(C)C)cc1)C(=O)C(=O)O" , the value recorded as its inhibition at 10 µM is 88

Given item "Cc1cc(N(C)C)c(-c2ccc(OC(F)(F)F)cc2)cc1N(Cc1ccc(C(C)(C)C)cc1)C(=O)C(=O)O" , the value recorded as its inhibition at 10 µM is 92

Given item "CC(C)(C)Oc1ccc(N(Cc2ccc(C(C)(C)C)cc2)C(=O)C(=O)O)cc1-c1ccc(OC(F)(F)F)cc1" , the value recorded as its inhibition at 10 µM is 78

Given item "CC(C)(C)c1ccc(CN(C(=O)C(=O)O)c2ccc(-c3ccc(OC(F)(F)F)cc3)cc2C(F)(F)F)cc1" , the value recorded as its inhibition at 10 µM is 75

Given item "CC(C)(C)c1ccc(N(C(=O)C(=O)O)c2cccc(-c3ccc(OC(F)(F)F)cc3)c2)cc1" , the value recorded as its inhibition at 10 µM is 61

----------
Target: recombinant human PAI-1 (Homo sapiens, UniProt P05121)
Experiment: Test Example 4: Human PAI-1 Inhibitory Activity (amount of PAI-1 bound to plate-coated one-chain tPA, ELISA)
Assay type: biochemical
Parameters: purchased Molecular Innovations, Inc
Settings: human PAI-1 bound to tPA; Compound Concentration 3µM; read-out: Inhibition Rate of PAI-1 Activity (%)
This section presents molecules with their documented inhibition at 3 µM values.
Please give a number only; it is taken to be in %.

Sample records with inhibition at 3 µM:
molecule | measured_metric | units_text | endpoint_result
CC(C)(C)c1ccc(CN(C(=O)C(=O)O)c2ccc(Oc3ccc(OC(F)(F)F)cc3)cc2C(F)(F)F)cc1 [Compound 174] | inhibition at 3 µM | % | 32
CCCCC(c1ccc(C(C)(C)C)cc1)N(C(=O)C(=O)O)c1ccc(-c2ccc(OC(F)(F)F)cc2)cc1 (stereo not shown) [Compound 221] | inhibition at 3 µM | % | 38
CC(C)(C)c1ccc(Oc2cc(-c3ccc(OC(F)(F)F)cc3)ccc2CCC(=O)O)cc1 [Compound 80] | inhibition at 3 µM | % | 29
CCCCCOc1ccc(-c2ccc(OC(F)(F)F)cc2)cc1N(Cc1ccc(C(C)(C)C)cc1)C(=O)C(=O)O [Compound 194] | inhibition at 3 µM | % | 56
CC(C)(C)c1ccc(COc2ccc(-c3ccc(OC(F)(F)F)cc3)cc2CCC(=O)O)cc1 [Compound 5] | inhibition at 3 µM | % | 67

Measured inhibition at 3 µM (recombinant human PAI-1 (Homo sapiens, UniProt P05121)), entry CC(C)(C)c1ccc(CN(C(=O)C(=O)O)c2ccc(Cl)c(-c3ccc(OC(F)(F)F)cc3)c2)cc1 [Compound 186] : 53

Measured inhibition at 3 µM (recombinant human PAI-1 (Homo sapiens, UniProt P05121)), entry CC(C)(C)c1ccc(CN(C(=O)C(=O)O)c2cc(-c3ccc(OC(F)(F)F)cc3)cc(C(F)(F)F)c2)cc1 [Compound 139] : 32

Measured inhibition at 3 µM (recombinant human PAI-1 (Homo sapiens, UniProt P05121)), entry CC(C)(C)c1ccc(COc2cc(Oc3ccc(OC(F)(F)F)cc3)ccc2CCC(=O)O)cc1 [Compound 78] : 83

Measured inhibition at 3 µM (recombinant human PAI-1 (Homo sapiens, UniProt P05121)), entry CCCOc1ccc(N(Cc2ccc(C(C)(C)C)cc2)C(=O)C(=O)O)cc1-c1ccc(OC(F)(F)F)cc1 [Compound 185] : 49

Measured inhibition at 3 µM (recombinant human PAI-1 (Homo sapiens, UniProt P05121)), entry CC(C)(Oc1cc(-c2ccc(OC(F)(F)F)cc2)ccc1OCc1ccc(C(C)(C)C)cc1)C(=O)O [Compound 106] : 17

----------
Biological target: recombinant human PAI-1 (Homo sapiens)
Assay: Test Example 4: Human PAI-1 Inhibitory Activity (amount of PAI-1 bound to plate-coated one-chain tPA, ELISA)
Type: biochemical
Set-up: purchased Molecular Innovations, Inc
Conditions: human PAI-1 bound to tPA; Compound Concentration 0.3µM; read-out: Inhibition Rate of PAI-1 Activity (%)
measured_metric: inhibition at 0.3 µM
Please provide the amount together with its unit, number first.

compound | system | inhibition at 0.3 µM
CC(C)(C)c1ccc(Oc2cc(-c3ccc(OC(F)(F)F)cc3)ccc2CCC(=O)O)cc1 | recombinant human PAI-1 (Homo sapiens) | 0%
O=C(O)CCc1cc(-c2ccc(OC(F)(F)F)cc2)ccc1OCCCCc1ccccc1 | recombinant human PAI-1 (Homo sapiens) | 0%
CCCCCOc1ccc(-c2ccc(OC(F)(F)F)cc2)cc1N(CCCCc1ccccc1)C(=O)C(=O)O | recombinant human PAI-1 (Homo sapiens) | 11%
CC(C)(Oc1cc(-c2ccc(OC(F)(F)F)cc2)ccc1OCc1ccc(C(C)(C)C)cc1)C(=O)O | recombinant human PAI-1 (Homo sapiens) | 0%
CC(C)(Oc1cccc(-c2ccc(OC(F)(F)F)cc2)c1OCc1ccc(C(C)(C)C)cc1)C(=O)O | recombinant human PAI-1 (Homo sapiens) | 0%
CCC(CC)Oc1ccc(-c2ccc(OC(F)(F)F)cc2)cc1N(Cc1ccc(C(C)(C)C)cc1)C(=O)C(=O)O | recombinant human PAI-1 (Homo sapiens) | 18%

Measured inhibition at 0.3 µM (recombinant human PAI-1 (Homo sapiens)), entry "CCN(CC)c1ccc(N(Cc2ccc(C(C)(C)C)cc2)C(=O)C(=O)O)c(-c2ccc(OC(F)(F)F)cc2)c1" : 0%

Measured inhibition at 0.3 µM (recombinant human PAI-1 (Homo sapiens)), entry "CCCCc1ccc(CN(C(=O)C(=O)O)c2ccc(-c3ccc(C(C)(C)C)cc3)cc2)cc1" : 0%

----------
This section presents molecules with their documented inhibition at 3 µM values.
Biological target: recombinant human PAI-1 (Homo sapiens)
Assay: Test Example 2: Human PAI-1 Inhibitory Activity (pH 7.4 HEPES buffer, 10 minutes incubation with two-chain tPA)
Assay type: biochemical
Design: purchased Molecular Innovations, Inc
Conditions: read-out: Inhibition Rate of PAI-1 Activity (%)

Sample records with inhibition at 3 µM:
molecule | inhibition at 3 µM
CC(C)c1ccc(Oc2cc(-c3ccc(OC(F)(F)F)cc3)ccc2/C=C/C(=O)O)cc1 | > 99%
CCCCCOc1cc(Oc2ccc(OC(F)(F)F)cc2)ccc1N(CCCCc1ccccc1)C(=O)C(=O)O | > 99%
CC(C)(C)c1ccc(Oc2cc(OCC(=O)O)cc(-c3ccc(OC(F)(F)F)cc3)c2)cc1 | 97%
CCCCCOc1cc(-c2ccc(OC(F)(F)F)cc2)ccc1N(CCCCc1ccccc1)C(=O)C(=O)O | 94%
CC(C)(C)c1ccc(CN(C(=O)C(=O)O)c2ccc(-c3ccc(OC(F)(F)F)cc3)cc2Cl)cc1 | 99%
CCC(C)(C)c1ccc(Oc2cc(-c3ccc(OC(F)(F)F)cc3)ccc2CCC(=O)O)cc1 | > 99%
CC(C)(C)c1ccc(Oc2cc(-c3cccc(OC(F)(F)F)c3)ccc2OCC(=O)O)cc1 | 98%
CCCCCCOc1cc(-c2ccc(OC(F)(F)F)cc2)ccc1OC(CCCCCC)C(=O)O (stereo not shown) | > 99%
CC(C)(C)c1ccc(Oc2cc(-c3ccc(C#N)cc3)ccc2OCC(=O)O)cc1 | 49%
CC(C)c1ccc(-c2ccc(/C=C/C(=O)O)c(Oc3ccc(C(C)(C)C)cc3)c2)cc1 | > 99%

Given item "CC(C)(C)c1ccc(Oc2cc(-c3ccc4ccccc4c3)ccc2/C=C/C(=O)O)cc1" , the value recorded as its inhibition at 3 µM is > 99%

Given item "CC(C)(C)c1ccc(C(=O)c2cc(-c3ccc(OC(F)(F)F)cc3)ccc2OCC(=O)O)cc1" , the value recorded as its inhibition at 3 µM is > 99%

Given item "CC(C)(C)c1ccc(-c2ccc(CCC(=O)O)c(Oc3ccc(OC(F)(F)F)cc3)c2)cc1" , the value recorded as its inhibition at 3 µM is > 99%

Given item CCCCC(Oc1ccc(-c2ccc(OC(F)(F)F)cc2)cc1OCCCCc1ccccc1)C(=O)O (stereo not shown) , the value recorded as its inhibition at 3 µM is 97%

Given item "CC(C)(C)c1ccc(Oc2cc(-c3ccc(C(C)(C)C)cc3)ccc2/C=C/C(=O)O)cc1" , the value recorded as its inhibition at 3 µM is > 99%

Given item "CC(C)(C)c1ccc(Cc2cc(-c3ccc(OC(F)(F)F)cc3)ccc2OCC(=O)O)cc1" , the value recorded as its inhibition at 3 µM is > 99%

Given item "CC(C)c1ccc(-c2ccc(/C=C/C(=O)O)c(Sc3ccc(C(C)(C)C)cc3)c2)cc1" , the value recorded as its inhibition at 3 µM is > 99%

Given item "CCCCOc1ccc(N(CCCCc2ccccc2)C(=O)C(=O)O)cc1-c1ccc(OC(F)(F)F)cc1" , the value recorded as its inhibition at 3 µM is 98%
